Data origin, for the record: ChEMBL document CHEMBL1153197

Target: Alpha-1A adrenergic receptor (Homo sapiens)
Sequence (P35348 whole entry): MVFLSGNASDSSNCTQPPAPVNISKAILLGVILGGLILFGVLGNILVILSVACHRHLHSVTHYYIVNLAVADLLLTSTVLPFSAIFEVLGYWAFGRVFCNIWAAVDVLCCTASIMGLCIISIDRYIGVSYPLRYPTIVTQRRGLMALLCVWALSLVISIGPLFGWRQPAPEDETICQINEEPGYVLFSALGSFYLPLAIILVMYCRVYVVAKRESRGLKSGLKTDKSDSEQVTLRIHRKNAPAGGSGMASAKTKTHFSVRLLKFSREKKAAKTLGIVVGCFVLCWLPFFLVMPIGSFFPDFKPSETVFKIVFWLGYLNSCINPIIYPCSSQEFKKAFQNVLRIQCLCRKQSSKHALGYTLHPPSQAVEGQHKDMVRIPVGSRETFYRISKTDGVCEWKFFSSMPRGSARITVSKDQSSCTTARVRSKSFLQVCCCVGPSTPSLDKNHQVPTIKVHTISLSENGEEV
recordedEndpoint: Ki

- compound: "COc1cc2c3c(c1OC)-c1cc4c(cc1CC3N(C)CC2)OCO4 (racemic) [NANTENINE]"
  recordedEndpoint: "Ki"
  assayValue: "2 nM"

----------
Target: UniProt Q01959
Sequence (Q01959 whole entry): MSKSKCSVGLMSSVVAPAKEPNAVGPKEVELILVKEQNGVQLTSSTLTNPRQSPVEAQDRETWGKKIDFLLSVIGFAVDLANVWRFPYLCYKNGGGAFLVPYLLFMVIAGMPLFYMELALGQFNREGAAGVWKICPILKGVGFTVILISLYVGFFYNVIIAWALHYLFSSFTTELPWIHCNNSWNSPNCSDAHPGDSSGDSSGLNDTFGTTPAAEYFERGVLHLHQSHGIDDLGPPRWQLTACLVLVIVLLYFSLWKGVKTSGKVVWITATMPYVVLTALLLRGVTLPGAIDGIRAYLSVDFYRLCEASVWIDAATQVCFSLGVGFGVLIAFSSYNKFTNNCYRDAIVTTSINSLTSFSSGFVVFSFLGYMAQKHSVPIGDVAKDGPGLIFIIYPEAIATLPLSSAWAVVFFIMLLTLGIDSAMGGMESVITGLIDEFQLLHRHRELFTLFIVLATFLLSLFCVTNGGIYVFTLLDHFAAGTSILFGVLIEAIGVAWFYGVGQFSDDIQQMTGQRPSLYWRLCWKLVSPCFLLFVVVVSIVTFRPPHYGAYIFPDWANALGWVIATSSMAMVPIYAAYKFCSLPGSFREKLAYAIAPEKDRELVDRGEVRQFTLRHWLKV

- compound: "COc1cc2c3c(c1OC)-c1cc4c(cc1CC3N(C)CC2)OCO4 (racemic) [NANTENINE]"
  Ki: "> 10 µM"

----------
Target: UniProtKB P21728
Sequence (P21728 whole entry): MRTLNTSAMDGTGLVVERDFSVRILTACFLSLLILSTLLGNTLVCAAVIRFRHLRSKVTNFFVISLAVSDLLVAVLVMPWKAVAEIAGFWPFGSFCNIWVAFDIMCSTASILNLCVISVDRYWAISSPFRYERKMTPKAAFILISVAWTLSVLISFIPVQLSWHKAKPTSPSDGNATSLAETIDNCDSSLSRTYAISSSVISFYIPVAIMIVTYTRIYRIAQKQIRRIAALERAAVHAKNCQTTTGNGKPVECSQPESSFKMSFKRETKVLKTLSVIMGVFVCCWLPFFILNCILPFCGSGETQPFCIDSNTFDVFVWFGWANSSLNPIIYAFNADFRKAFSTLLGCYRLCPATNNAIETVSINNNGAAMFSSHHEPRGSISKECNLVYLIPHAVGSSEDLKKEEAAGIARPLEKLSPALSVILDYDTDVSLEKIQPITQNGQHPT
Experiment: Displacement of [3H]SCH233930 from human dopamine D1 receptor
pKi: −log10 of the molar value.

- compound: "COc1cc2c3c(c1OC)-c1cc4c(cc1CC3N(C)CC2)OCO4 (racemic)"
  pKi: 6.05
